- Test system: NCI-H526 cell line
- assay.notes: Cell viability assay for H526 cell (EZ-Cytox)
- Assay type: cell-based
- condition.parameters: Homo sapiens, NCI-H526, 120 h; H526 cells, 5 days, 3000 nM to 0.46 nM
readout.name: IC50

## Input Consider the molecule COc1cc(C(=O)NN2CCC(N3CC4(CCN(c5cccc6c5C(=O)N(C5CCC(=O)NC5=O)C6=O)CC4)C3)CC2)c(F)cc1Nc1ncc2c(n1)N(C(C)C)CC(F)(F)C(=O)N2C (stereo not shown) and give its measured IC50.
## Output < 0.05 µM

## Input Now give it for COc1cc(C(=O)NC2CCCN(C(=O)CN3CCN(c4cccc5c4C(=O)N(C4CCC(=O)NC4=O)C5=O)CC3)C2)ccc1Nc1ncc2c(n1)N(C1CCCC1)CC(F)(F)C(=O)N2C (stereo not shown) too.
## Output < 0.03 µM

## Input Repeat with COc1cc(C(=O)NC2CCN(C(=O)CCCOc3cccc4c3C(=O)N(C3CCC(=O)NC3=O)C4=O)CC2)c(F)cc1Nc1ncc2c(n1)N(C1CCCC1)CC(F)(F)C(=O)N2C (stereo not shown)
## Output < 0.1 µM

## Input And then COc1cc(C(=O)NC2CCN(C(=O)CCN3CCN(c4ccc(F)c5c4C(=O)N(C4CCC(=O)NC4=O)C5=O)CC3)CC2)ccc1Nc1ncc2c(n1)N(C1CCCC1)CC(F)(F)C(=O)N2C (stereo not shown) , what is it?
## Output < 0.1 µM

## Input Same question, COc1cc(C(=O)N[C@H]2CC[C@H](N3CCN(c4ccc5c(c4)C(=O)N(C4CCC(=O)NC4=O)C5=O)CC3)CC2)ccc1Nc1ncc2c(n1)N(C(C)C)CC(F)(F)C(=O)N2C (stereo partly shown) this time
## Output < 0.05 µM

## Input Now consider COc1cc(C(=O)NC2CCN(C(=O)CCC3CCN(c4cccc5c4C(=O)N(C4CCC(=O)NC4=O)C5=O)CC3)CC2)ccc1Nc1ncc2c(n1)N(C1CCCC1)CC(F)(F)C(=O)N2C (stereo not shown) and answer again.
## Output < 0.1 µM

## Input Please give the result for COc1cc(C(=O)NC2CCN(C(=O)CCCNc3cccc4c3C(=O)N(C3CCC(=O)NC3=O)C4=O)CC2)c(F)cc1Nc1ncc2c(n1)N(C(C)C)CC(F)(F)C(=O)N2C (stereo not shown) too.
## Output < 0.2 µM

## Input Would you kindly repeat that for COc1cc(C(=O)NC2CCN(C(=O)COC3CCN(c4cccc5c4C(=O)N(C4CCC(=O)NC4=O)C5=O)CC3)CC2)ccc1Nc1ncc2c(n1)N(C1CCCC1)CC(F)(F)C(=O)N2C (stereo not shown) ?
## Output < 0.1 µM

## Input Next entry: COc1cc(C(=O)NN2CCC(N3CCN(c4ccc5c(c4)C(=O)N(C4CCC(=O)NC4=O)C5=O)CC3)C2)ccc1Nc1ncc2c(n1)N(C(C)C)CC(F)(F)C(=O)N2C (stereo not shown)
## Output < 0.1 µM

## Input Also COc1cc(C(=O)NC2CC3(CCN(CC4CCN(c5ccc6c(c5)C(=O)N(C5CCC(=O)NC5=O)C6=O)CC4)CC3)C2)ccc1Nc1ncc2c(n1)N(C1CCCC1)CC(F)(F)C(=O)N2C (stereo not shown) ?
## Output < 0.03 µM

---

- System: NCI-H526 cell line
- assay.notes: Cell viability assay for H526 cell (EZ-Cytox)
- Format: cell-based
- condition.parameters: Homo sapiens, NCI-H526, 120 h; H526 cells, 5 days, 3000 nM to 0.46 nM
I'd appreciate it if you could supply IC50 values for the items below.

## Input Quick check: IC50 of COc1cc(C(=O)NC2CCN(C(=O)CCN3CCN(c4cccc5c4CN(C4CCC(=O)NC4=O)C5=O)CC3)CC2)ccc1Nc1ncc2c(n1)N(C1CCCC1)CC(F)(F)C(=O)N2C (stereo not shown) ?
## Output < 50 nM

## Input Note, next up: COc1cc(C(=O)NN2CCN(C(=O)CCC3CCN(c4ccc5c(c4)CN(C4CCC(=O)NC4=O)C5=O)CC3)CC2)ccc1Nc1ncc2c(n1)N(C(C)C)CC(F)(F)C(=O)N2C (stereo not shown)
## Output < 30 nM

## Input Try this compound next: COc1cc(C(=O)NC2CCN(C(=O)CCN3CCN(c4cccc5c4CN(C4CCC(=O)NC4=O)C5=O)CC3)CC2)ccc1Nc1ncc2c(n1)N(C(C)C)CC(F)(F)C(=O)N2C (stereo not shown)
## Output < 50 nM

## Input And COc1cc(C(=O)N2CCC(N3CC4(CCN(c5cc6c(cc5F)C(=O)N(C5CCC(=O)NC5=O)C6=O)CC4)C3)CC2)ccc1Nc1ncc2c(n1)N(C(C)C)CC(F)(F)C(=O)N2C (stereo not shown) ?
## Output < 400 nM

## Input Note, next up: COc1cc(C(=O)N[C@H]2CC[C@@H](N(C)CCN3CCN(c4cccc5c4C(=O)N(C4CCC(=O)NC4=O)C5=O)CC3)CC2)ccc1Nc1ncc2c(n1)N(C1CCCC1)CC(F)(F)C(=O)N2C (stereo partly shown)
## Output < 50 nM

## Input Same question for COc1cc(C(=O)NN2CCC(N3CC4(CCN(c5ccc6c(c5)CN(C5CCC(=O)NC5=O)C6=O)CC4)C3)CC2)ccc1Nc1ncc2c(n1)N(C(C)C)CC(F)(F)C(=O)N2C (stereo not shown) please.
## Output < 30 nM

## Input What would you report for COc1cc(C(=O)NN2CCC(CN3CCN(c4cccc5c4C(=O)N(C4CCC(=O)NC4=O)C5=O)CC3)C(F)(F)C2)ccc1Nc1ncc2c(n1)N(C(C)C)CC(F)(F)C(=O)N2C (stereo not shown) ?
## Output < 100 nM

## Input Now try COc1cc(C(=O)NC2CCCN(C(=O)CCN3CCN(c4cccc5c4C(=O)N(C4CCC(=O)NC4=O)C5=O)CC3)C2)ccc1Nc1ncc2c(n1)N(C1CCCC1)CC(F)(F)C(=O)N2C (stereo not shown) .
## Output < 100 nM

## Input Moving on to COc1cc(C(=O)NC2CCN(C(=O)CC3CCN(c4ccc5c(c4)C(=O)N(C4CCC(=O)NC4=O)C5=O)C3)CC2)c(F)cc1Nc1ncc2c(n1)N(C1CCCC1)CC(F)(F)C(=O)N2C (stereo not shown)
## Output < 100 nM

## Input Next record, please: COc1cc(C(=O)NC2CCN(C(=O)CCN3CCN(c4cccc5c4C(=O)N(C4CCC(=O)NC4=O)C5=O)CC3)CC2)ccc1Nc1ncc2c(n1)N(C1CCCC1)CC1(CC1)C(=O)N2C (stereo not shown)
## Output < 50 nM
